- Study target: T1, orthogonal hCD122 receptor (hoRb), hCD122 with H133D and Y134F (human, UniProt P14784 27-550)
- T1 sequence: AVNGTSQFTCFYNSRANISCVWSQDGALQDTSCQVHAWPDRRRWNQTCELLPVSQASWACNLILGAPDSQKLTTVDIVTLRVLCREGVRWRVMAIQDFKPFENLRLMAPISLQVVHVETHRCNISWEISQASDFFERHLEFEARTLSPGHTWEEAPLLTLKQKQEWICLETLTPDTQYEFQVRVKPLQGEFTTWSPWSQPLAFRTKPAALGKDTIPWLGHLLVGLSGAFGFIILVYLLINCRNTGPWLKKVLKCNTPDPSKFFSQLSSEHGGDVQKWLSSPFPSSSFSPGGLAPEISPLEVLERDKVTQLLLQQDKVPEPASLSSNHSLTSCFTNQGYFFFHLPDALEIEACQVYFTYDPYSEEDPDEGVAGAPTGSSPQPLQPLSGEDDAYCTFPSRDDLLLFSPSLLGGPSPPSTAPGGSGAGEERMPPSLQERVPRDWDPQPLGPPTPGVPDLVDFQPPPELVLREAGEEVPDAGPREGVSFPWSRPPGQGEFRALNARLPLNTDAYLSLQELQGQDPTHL
- Assay info: cell-based or functional assay
Give measured NKL Ortho Proliferation Signal 1:10 for each item. Keep answers brief.
One number for each entry.

# annotated cases, reported NKL Ortho Proliferation Signal 1:10 shown
{"Binder": "Q126M, SQVLKA (ligand) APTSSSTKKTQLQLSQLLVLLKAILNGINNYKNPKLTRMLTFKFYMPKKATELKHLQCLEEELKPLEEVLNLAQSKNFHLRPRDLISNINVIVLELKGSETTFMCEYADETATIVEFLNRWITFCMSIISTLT", "Observed result": 18700}
{"Binder": "L18F, SQVLKA (ligand) APTSSSTKKTQLQLSQLFVLLKAILNGINNYKNPKLTRMLTFKFYMPKKATELKHLQCLEEELKPLEEVLNLAQSKNFHLRPRDLISNINVIVLELKGSETTFMCEYADETATIVEFLNRWITFCQSIISTLT", "Observed result": 39400}
{"Binder": "K97Q, SQVLKA (ligand) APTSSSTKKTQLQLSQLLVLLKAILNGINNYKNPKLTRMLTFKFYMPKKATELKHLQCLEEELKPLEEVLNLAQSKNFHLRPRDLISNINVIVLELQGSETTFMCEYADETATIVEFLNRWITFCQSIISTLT", "Observed result": 55400}

Turning to the following binder.
Sample L18T, SQVLKA (ligand) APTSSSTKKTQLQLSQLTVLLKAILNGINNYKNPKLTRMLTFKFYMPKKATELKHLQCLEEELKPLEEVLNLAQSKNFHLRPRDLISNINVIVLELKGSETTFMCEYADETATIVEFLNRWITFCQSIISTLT — what was its NKL Ortho Proliferation Signal 1:10? 20100
